Where these numbers come from: patent US20250011363A1

Item-by-item account of Binding affinity (RU)
Target: acetylcholine receptor
Test: SPR, AchR immobilized on CM5 chip, peptide at 10 uM
recorded-endpoint: Binding affinity (RU)

>>> print(df.to_string())
                binder  value_measured
0  KVVRRR [6mer-2-369]          145 RU
1  RLRTRR [6mer-2-368]          142 RU
2  KKKHKR [6mer-1-858]           27 RU
3    KCCKR [5mer-1038]           17 RU
4     KTTAK [5mer-724]           14 RU
5    RDCFK [5mer-1044]           22 RU
6  RKYWGK [6mer-1-832]           12 RU
7     KATER [5mer-734]           16 RU
